Parameter: furin cleavage Z-score. Scope: all listed entries.
molecular target: furin, P09958; assay: furin cleavage Z-score vs untreated control; higher = more cleavage, active = 3.5 or more, inactive = 1 or less, 8 variable residues between constant flanks; conditions: 15 min;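 further: purified furin at 1:10 enzyme:substrate in 50 mM HEPES pH 7.5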
Sequence (P09958 whole entry): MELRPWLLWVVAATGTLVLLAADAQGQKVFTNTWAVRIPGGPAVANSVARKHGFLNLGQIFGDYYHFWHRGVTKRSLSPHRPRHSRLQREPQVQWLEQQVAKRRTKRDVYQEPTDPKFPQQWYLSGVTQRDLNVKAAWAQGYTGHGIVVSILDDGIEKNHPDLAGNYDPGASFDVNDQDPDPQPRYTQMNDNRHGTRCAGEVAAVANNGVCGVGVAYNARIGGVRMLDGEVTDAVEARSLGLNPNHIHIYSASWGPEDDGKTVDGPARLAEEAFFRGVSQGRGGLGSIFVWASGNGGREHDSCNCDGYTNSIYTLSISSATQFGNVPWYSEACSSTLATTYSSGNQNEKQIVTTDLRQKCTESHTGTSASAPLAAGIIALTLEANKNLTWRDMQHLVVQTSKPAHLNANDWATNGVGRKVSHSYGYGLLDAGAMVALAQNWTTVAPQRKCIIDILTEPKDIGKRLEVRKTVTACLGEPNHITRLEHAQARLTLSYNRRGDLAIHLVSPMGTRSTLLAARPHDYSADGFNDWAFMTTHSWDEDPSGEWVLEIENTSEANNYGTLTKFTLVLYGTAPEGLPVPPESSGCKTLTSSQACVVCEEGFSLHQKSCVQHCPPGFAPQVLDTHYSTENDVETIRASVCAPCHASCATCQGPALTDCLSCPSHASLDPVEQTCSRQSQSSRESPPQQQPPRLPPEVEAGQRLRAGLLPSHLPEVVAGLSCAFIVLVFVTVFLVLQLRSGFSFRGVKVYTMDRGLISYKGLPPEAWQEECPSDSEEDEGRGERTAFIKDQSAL
Some of the results follow. The hit rate among all sequences tested is not known here.
Quantity: furin cleavage Z-score

Macromolecule Sequence	Val
CAAILDMIAGAGNASASA [HC332]	0.516
CADDMEECSQAGNASASA [HC1811]	-0.945
CAEVPCHHPSAGNASASA [HC2375]	1.23
CADTEVAASCAGNASASA [HC566]	0.504
